These data points were gathered from the supplement of paper PMC10307832.

tested on: NCI-H647; test: relative viability (nuclei count vs DMSO), 5 days (fraction); higher = more cells survive; conditions: first compound 0.3162 µM

molecule: NC(=O)Nc1cc(-c2cccc(F)c2)sc1C(=O)N[C@H]1CCCNC1 [AZD7762] + CC(C)C[C@H](NC(=O)[C@H](Cc1ccccc1)NC(=O)c1cnccn1)B(O)O [Bortezomib] (partner 0.002 µM)
relative viability: 0.634
--
molecule: NC(=O)Nc1cc(-c2cccc(F)c2)sc1C(=O)N[C@H]1CCCNC1 [AZD7762] + CCNC(=O)c1noc(-c2cc(C(C)C)c(O)cc2O)c1-c1ccc(CN2CCOCC2)cc1 [Luminespib] (partner 0.01 µM)
relative viability: 0.119
--
molecule: NC(=O)Nc1cc(-c2cccc(F)c2)sc1C(=O)N[C@H]1CCCNC1 [AZD7762] + Cc1cc(Nc2cc(N3CCN(C)CC3)nc(Sc3ccc(NC(=O)C4CC4)cc3)n2)n[nH]1 [Tozasertib] (partner 0.1 µM)
relative viability: 0.254
--
molecule: NC(=O)Nc1cc(-c2cccc(F)c2)sc1C(=O)N[C@H]1CCCNC1 [AZD7762] + CS(=O)(=O)CCNCc1ccc(-c2ccc3ncnc(Nc4ccc(OCc5cccc(F)c5)c(Cl)c4)c3c2)o1 [Lapatinib] (partner 2 µM)
relative viability: 0.519
--
molecule: NC(=O)Nc1cc(-c2cccc(F)c2)sc1C(=O)N[C@H]1CCCNC1 [AZD7762] + O=C(CCCCCCC(=O)Nc1ccccc1)NO [Vorinostat] (partner 1 µM)
relative viability: 0.281
--
molecule: NC(=O)Nc1cc(-c2cccc(F)c2)sc1C(=O)N[C@H]1CCCNC1 [AZD7762] + Nc1ncn([C@H]2C[C@H](O)[C@@H](CO)O2)c(=O)n1 [Decitabine] (partner 2 µM)
relative viability: 0.356

---

system: NCI-H1793; assay: relative viability (nuclei count vs DMSO), 5 days (fraction); higher = more cells survive; conditions: first compound 0.1581 µM
# relative viability per entry

molecule: CC1(C)CCC(c2ccc(Cl)cc2)=C(CN2CCN(c3ccc(C(=O)NS(=O)(=O)c4ccc(N[C@H](CCN5CCOCC5)CSc5ccccc5)c(S(=O)(=O)C(F)(F)F)c4)cc3)CC2)C1 [Navitoclax] + CS(=O)(=O)N1CCN(Cc2cc3nc(-c4cccc5[nH]ncc45)nc(N4CCOCC4)c3s2)CC1 [Pictilisib] (partner 1 µM)
relative viability: 0.226

molecule: CC1(C)CCC(c2ccc(Cl)cc2)=C(CN2CCN(c3ccc(C(=O)NS(=O)(=O)c4ccc(N[C@H](CCN5CCOCC5)CSc5ccccc5)c(S(=O)(=O)C(F)(F)F)c4)cc3)CC2)C1 [Navitoclax] + COc1cc2c(Oc3ccc(NC(=O)C4(C(=O)Nc5ccc(F)cc5)CC4)cc3F)ccnc2cc1OCCCN1CCOCC1 [Foretinib] (partner 0.25 µM)
relative viability: 0.608

molecule: CC1(C)CCC(c2ccc(Cl)cc2)=C(CN2CCN(c3ccc(C(=O)NS(=O)(=O)c4ccc(N[C@H](CCN5CCOCC5)CSc5ccccc5)c(S(=O)(=O)C(F)(F)F)c4)cc3)CC2)C1 [Navitoclax] + O=C(CCCCCCC(=O)Nc1ccccc1)NO [Vorinostat] (partner 1 µM)
relative viability: 0.667

molecule: CC1(C)CCC(c2ccc(Cl)cc2)=C(CN2CCN(c3ccc(C(=O)NS(=O)(=O)c4ccc(N[C@H](CCN5CCOCC5)CSc5ccccc5)c(S(=O)(=O)C(F)(F)F)c4)cc3)CC2)C1 [Navitoclax] + NC(=O)Nc1cc(-c2cccc(F)c2)sc1C(=O)N[C@H]1CCCNC1 [AZD7762] (partner 0.2 µM)
relative viability: 0.402
